# TESTED_TARGET: Retinoic acid receptor RXR-alpha (Homo sapiens)
# Sequence (P19793 whole entry): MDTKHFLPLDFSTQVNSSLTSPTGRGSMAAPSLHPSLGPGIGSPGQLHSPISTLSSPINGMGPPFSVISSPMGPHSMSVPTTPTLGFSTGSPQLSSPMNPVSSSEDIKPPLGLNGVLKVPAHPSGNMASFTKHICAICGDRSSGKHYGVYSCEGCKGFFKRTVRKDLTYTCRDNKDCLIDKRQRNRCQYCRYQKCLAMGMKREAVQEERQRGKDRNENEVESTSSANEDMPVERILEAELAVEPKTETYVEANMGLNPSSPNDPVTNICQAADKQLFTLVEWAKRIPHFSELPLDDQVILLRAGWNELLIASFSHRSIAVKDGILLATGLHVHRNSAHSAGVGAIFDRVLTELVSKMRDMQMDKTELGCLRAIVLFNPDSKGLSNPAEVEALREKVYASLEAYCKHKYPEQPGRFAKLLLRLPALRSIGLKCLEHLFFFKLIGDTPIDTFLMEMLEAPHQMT
# TEST_PROTOCOL: Effective concentration for antagonistic activity against RXR-alpha expressed in CV-1 cells
# Type: functional, cell-based, Cercopithecidae
ASSAY_ENDPOINT: EC50 (µM)
Report only the number, with the unit µM understood.

The measured EC50 associated with CCCCOc1c(-c2cccc3[nH]c(/C(C)=C/C(=O)O)cc23)cc(C(C)C)cc1C(C)C reads 3.98

Entry C/C(=C/C=C/C(C)=C/C(=O)O)c1cc(C(C)(C)C)cc(C(C)(C)C)c1OCCCF ; EC50 = 0.0064

Sample C/C(=C\C(=O)O)c1ccc2scc(-c3cc(C(C)C)cc(C(C)C)c3OCCCF)c2c1 ; EC50 observed: 4.15

Sample CCCCOc1c(-c2c[nH]c3ccc(/C(C)=C/C(=O)O)cc23)cc(C(C)C)cc1C(C)C ; EC50 observed: 0.0211
